B1: Twister Ribozyme (parent)
chain: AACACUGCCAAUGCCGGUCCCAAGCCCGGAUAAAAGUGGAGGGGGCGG

- Variants of: B1
- PROCEDURE_DETAILS: self-cleavage, relative activity (ratio to wild type); higher = more cleavage; co-transcriptional
What self-cleavage was measured for each of the following?
The answer should be written as a number, with no unit following it.

Recall and state the measured self-cleavage for G24U G47C .
0.131

Recall and state the measured self-cleavage for C20A G29C .
0.0857

Recall and state the measured self-cleavage for A4G G16A .
0.918

Recall and state the measured self-cleavage for A23C G42A .
0.113

Recall and state the measured self-cleavage for G17U G43U .
0.12

Recall and state the measured self-cleavage for G7A G13U .
0.0584

Recall and state the measured self-cleavage for A11C G43U .
0.252

Recall and state the measured self-cleavage for C8U A34C .
0.134

Recall and state the measured self-cleavage for G16A A34G .
0.574

Recall and state the measured self-cleavage for G7A C9A .
0.0651

Recall and state the measured self-cleavage for C3A A10C .
0.308

Recall and state the measured self-cleavage for U31C G47A .
0.926

Recall and state the measured self-cleavage for C21A A40U .
0.0782

Recall and state the measured self-cleavage for A1G G16U .
0.726

Recall and state the measured self-cleavage for G7C C19A .
0.0521

Recall and state the measured self-cleavage for A11U A34G .
1.07

Recall and state the measured self-cleavage for G17A G28A .
0.296

Recall and state the measured self-cleavage for A11U G24A .
0.108

Recall and state the measured self-cleavage for C26U G48C .
0.301

Recall and state the measured self-cleavage for C9U U18C .
0.0748

Recall and state the measured self-cleavage for C8A C9U .
0.0937

Recall and state the measured self-cleavage for A11C G17U .
0.14

Recall and state the measured self-cleavage for C8U G29U .
0.577

Recall and state the measured self-cleavage for A10U G36C .
0.711

Recall and state the measured self-cleavage for A10U G41A .
0.626

Recall and state the measured self-cleavage for U12A G36C .
0.693

Recall and state the measured self-cleavage for A2U C25A .
0.0735

Recall and state the measured self-cleavage for G38U G47A .
0.564

Recall and state the measured self-cleavage for G28A G45A .
0.653

Recall and state the measured self-cleavage for A4G G29A .
0.819

Recall and state the measured self-cleavage for C20U C27A .
0.171

Recall and state the measured self-cleavage for A11U C25A .
0.139

Recall and state the measured self-cleavage for A30G G38C .
0.868

Recall and state the measured self-cleavage for C15G G45U .
0.133

Recall and state the measured self-cleavage for U18A C21G .
0.395

Recall and state the measured self-cleavage for G16U U37A .
0.436

Recall and state the measured self-cleavage for A11U A40U .
0.142

Recall and state the measured self-cleavage for A40U G44A .
0.155

Recall and state the measured self-cleavage for A4C G44U .
0.134

Recall and state the measured self-cleavage for G28U C46A .
0.778

Recall and state the measured self-cleavage for A23C U31A .
0.363

Recall and state the measured self-cleavage for A4G G17A .
0.473

Recall and state the measured self-cleavage for G24C A40C .
0.141

Recall and state the measured self-cleavage for C19U C25G .
0.176

Recall and state the measured self-cleavage for C9U G13C .
0.592

Recall and state the measured self-cleavage for A4U G41C .
0.0883
